Where do these numbers come from? They come from ChEMBL document CHEMBL5113468.

assay: Apparent permeability across apical to basolateral side in human Caco-2 cells at 2 uM measured after 2 hrs by LC-MS/MS analysis; type: ADME, cell-based
endpoint: Papp A→B at 2 h, 2 µM (×10⁻⁶ cm/s)
Supply the numeric figure in ×10⁻⁶ cm/s, leaving out any unit text.

Req: # lookup: Papp A→B at 2 h, 2 µM of Nc1ccc(S(=O)(=O)N2CCN(C(=O)c3cc(O)c(O)c(O)c3)C(C(=O)NCc3ccco3)C2)cc1 (configuration not stated)
Resp: 0.2

* * *

biological target: Human immunodeficiency virus type 1 reverse transcriptase (Human immunodeficiency virus 1, UniProt Q72547); assay: Inhibition of wild-type recombinant HIV-1 group M subtype B BH10 reverse transcriptase RNase-associated RNase H activity expressed in Escherichia coli XL1 blue using 32P-labeled 5'-UUUUUUUUUAGGAUACAUAUGGUUAAAGUAU-3'/5'-ATACTTTAACCATATGTATCC-3' RNA/DNA template-primer as substrate preincubated for 5 mins followed by substrate addition and measured after 15 mins by phosphorimaging analysis
endpoint: IC50 (nM)

I: Nc1ccc(S(=O)(=O)N2CCN(C(=O)c3cc(O)c(O)c(O)c3)C(C(=O)Nc3ccccc3)C2)cc1 (configuration not stated)
II: Nc1ccc(S(=O)(=O)N2CCN(C(=O)c3cc(O)c(O)c(O)c3)CC2C(=O)NCc2ccco2)cc1 (configuration not stated)
III: CN(C(=O)C1CN(S(=O)(=O)c2ccc(N)cc2)CCN1C(=O)c1cc(O)c(O)c(O)c1)c1ccccc1 (configuration not stated)
Req: Arrange these 3 compounds in increasing order of IC50. Sort the labels as requested; that list is your answer.
Resp: II, I, III
(II: 130 nM, I: 330 nM, III: 990 nM)

a: COc1ccc(CNC(=O)C2CN(S(=O)(=O)c3ccc(N)cc3)CCN2C(=O)c2cc(O)c(O)c(O)c2)cc1 (configuration not stated)
b: COc1ccc(CNC(=O)C2CN(C(=O)c3cc(O)c(O)c(O)c3)CCN2S(=O)(=O)c2ccc(N)cc2)cc1 (configuration not stated)
Req: Two entries are listed, a and b . Which one carries the higher IC50? Indicate your choice by writing its label.
Resp: a
(a: 270 nM, b: 140 nM)

P: Nc1ccc(S(=O)(=O)N2CCN(C(=O)c3cc(O)c(O)c(O)c3)CC2)cc1
Q: CC(C)(C)OC(=O)N1CCC2(CCN(C(=O)C3CN(C(=O)c4cc(O)c(O)c(O)c4)CCN3S(=O)(=O)c3ccc(N)cc3)C2)C1 (configuration not stated)
R: CN(C(=O)C1CN(C(=O)c2cc(O)c(O)c(O)c2)CCN1S(=O)(=O)c1ccc(N)cc1)c1ccccc1 (configuration not stated)
Req: Arrange the 3 compounds from largest to smallest IC50. Sort the labels as requested; that list is your answer.
Resp: R, P, Q
(R: 1780 nM, P: 720 nM, Q: 180 nM)

I: Nc1ccc(S(=O)(=O)N2CCN(C(=O)c3cc(O)c(O)c(O)c3)CC2C(=O)Nc2ccccc2)cc1 (configuration not stated)
II: Nc1ccc(S(=O)(=O)N2CCN(C(=O)c3cc(O)c(O)c(O)c3)CC2C(=O)NCc2ccc(-c3ccccc3)cc2)cc1 (configuration not stated)
III: Nc1ccc(S(=O)(=O)N2CCN(C(=O)c3cc(O)c(O)c(O)c3)C(C(=O)NCc3ccco3)C2)cc1 (configuration not stated)
Req: Arrange the 3 compounds from largest to smallest IC50. Sort the labels as requested; that list is your answer.
Resp: I, II, III
(I: 560 nM, II: 340 nM, III: 67 nM)
